- SYSTEM_UNDER_TEST: human cloned CHRM3 receptor (Homo sapiens, UniProt P20309)
- Sequence (P20309 whole entry): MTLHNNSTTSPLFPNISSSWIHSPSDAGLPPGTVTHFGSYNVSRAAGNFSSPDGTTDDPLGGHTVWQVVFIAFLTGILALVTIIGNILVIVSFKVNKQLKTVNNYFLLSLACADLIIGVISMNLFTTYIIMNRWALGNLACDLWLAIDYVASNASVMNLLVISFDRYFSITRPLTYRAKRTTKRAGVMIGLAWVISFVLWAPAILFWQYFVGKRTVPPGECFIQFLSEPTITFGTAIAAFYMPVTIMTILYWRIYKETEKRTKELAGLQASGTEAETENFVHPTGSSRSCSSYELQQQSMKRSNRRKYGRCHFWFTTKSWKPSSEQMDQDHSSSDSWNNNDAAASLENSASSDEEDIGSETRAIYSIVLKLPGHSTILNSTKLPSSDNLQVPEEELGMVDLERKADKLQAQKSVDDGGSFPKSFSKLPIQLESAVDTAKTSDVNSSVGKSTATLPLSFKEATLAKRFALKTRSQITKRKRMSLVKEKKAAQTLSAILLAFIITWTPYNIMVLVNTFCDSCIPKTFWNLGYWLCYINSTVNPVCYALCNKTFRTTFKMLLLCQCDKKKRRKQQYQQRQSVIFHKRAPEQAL
- PROTOCOL_DESCRIPTION: CHRM3 Ca++ Flux Assay (M3_CHO cells, agonist mode)
- RUN_PARAMETERS: agonist mode, geometric mean if tested more than once, read-out: M3 FDSS EC50
pEC50: −log10 of the molar value.
VALUE_TYPE: pEC50

What measured pEC50 goes with CCc1nnc(COc2ccc(F)cc2C2CCN([C@@H]3COC4(C3)CN(c3nnco3)C4)CC2)s1 ?
< 4.60

More entries:
I am curious: what pEC50 value has been reported for Cc1nnc(COc2ccc(F)cc2C2CCN([C@@H]3COC4(C3)CN(c3nnco3)C4)CC2)o1 ?
< 4.60

One more molecule: Fc1ccc(OC2CCOCC2)c(C2CCN([C@@H]3COC4(C3)CN(c3ncon3)C4)CC2)c1
< 4.60
